# experimental target: S. typhimurium QAPRTase (quinolinate phosphoribosyltransferase) (Salmonella enterica)
reported endpoint: pKd
Here pKd is given on a logarithmic scale as minus log10 of the concentration in mol/L.

query: Under S. typhimurium QAPRTase (quinolinate phosphoribosyltransferase) (Salmonella enterica): pKd value of O=P(O)(O)OC[C@H]1O[C@H](OP(=O)(O)OP(=O)(O)O)[C@H](O)[C@@H]1O ?
result: 4.28

* * *

# experimental target: S. typhimurium QAPRTase (quinolinate phosphoribosyltransferase) (Salmonella enterica, UniProt P30012, E215D)
# protocol: biochemical
reported endpoint: pKd
Scale: pKd equals -log10([C]), with [C] in mol/L.

query: What value of pKd has been recorded for this entry: O=P(O)(O)OC[C@H]1O[C@H](OP(=O)(O)OP(=O)(O)O)[C@H](O)[C@@H]1O
result: 3.38
